- target-under-test: CALRdel52 (mutant calreticulin, 52 base pair deletion, Type 1) expressed with MPL on engineered cancer cells (UniProt P27797)
- Sequence (P27797 other isoform, or with tags, fused parts or gaps mutant limits assumed): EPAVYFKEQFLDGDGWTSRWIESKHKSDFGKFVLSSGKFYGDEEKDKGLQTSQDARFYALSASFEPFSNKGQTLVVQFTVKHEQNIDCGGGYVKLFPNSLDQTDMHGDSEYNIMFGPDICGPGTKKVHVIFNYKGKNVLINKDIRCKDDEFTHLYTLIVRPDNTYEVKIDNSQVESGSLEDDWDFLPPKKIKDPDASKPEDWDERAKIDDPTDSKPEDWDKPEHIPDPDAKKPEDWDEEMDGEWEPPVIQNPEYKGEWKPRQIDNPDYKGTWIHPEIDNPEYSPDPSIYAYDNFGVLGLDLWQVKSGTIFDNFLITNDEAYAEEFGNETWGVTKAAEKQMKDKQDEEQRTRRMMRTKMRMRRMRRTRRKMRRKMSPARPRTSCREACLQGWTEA
- method: cell-based or functional assay
metric-name: Cytotoxicity EC50, K562 MPL CALRdel52 cells (mg/L)
Give just the numeric value; mg/L need not be written.

Below: 2 binders and their reported Cytotoxicity EC50, K562 MPL CALRdel52 cells.
binder	unit-of-measure	measurement
CALRB81 (MP1018 Fab x CD3W245-LH-scFv, medium affinity) (bispecific antibody, part only; not given: anti-CD3 scFv arm, constant regions, V domains shown, not shown: another chain or arm of the molecule; a dimerising Fc or GST; small tags and cut ends) VL: DVVMTQTPSSVSAAVGGTVTINCQASQSLYNNKNLAWYQQKPGQPPKLLIYYASALASGVSSRFKGSGSGTQFTLTISGVQSDDAATYYCQGEFNCNSADCNSFGGGTEVVVK VH: QSVEESGGRLVTPGTPLTITCTVSGFSLSSYAMSWVRQAPGKGLEWIGVIDSGGTTYYATWAKSRFTISKTTKVALKITSPTTEDTATYFCARESYAGYDGYGHPIPYGMDPWGPGTLVTVSS	mg/L	0.0457
CALRB114 (MP1001 Fab x CD3W245-HL-scFv, high affinity) (bispecific antibody, part only; not given: CD3 scFv arm and IgG1 constant regions, V domains shown, not shown: another chain or arm of the molecule; a dimerising Fc or GST; small tags and cut ends) VH: QEQLKESGGRLVTPGTPLTLTCAVSGFSLDIYGMSWVRQAPGKGLEWIGIIYIEGITYYANWAKGRFTISKTSSTTLELKMTSLTTEDTAMYFCVAGVGRIWGPGTLVTVSS VL: YVMMTQTPSSVSAAVGGTVTINCQASQSLYNNNNLAWFQQKPGQPPKRLIYPASTLASGVSSRFKGSGSGTQFTLTISDVQSDDAATYFCLGEFSCSSADCYAFGGGTEVVVK	mg/L	0.0112

Turning now to a further binder:
Field request: Cytotoxicity EC50, K562 MPL CALRdel52 cells | item: CALRB118 (MP1016C Fab x CD3W245-HL-scFv, high affinity) (bispecific antibody, part only; not given: CD3 scFv arm and IgG1 constant regions, V domains shown, not shown: another chain or arm of the molecule; a dimerising Fc or GST; small tags and cut ends) VL: DPVLTQTESPVSAAVGGTVTINCQASQSVYDDNNLAWYQQKPGQPPKRLIYPASTLASGVSSRFSGSGSGSQFTLTISDVQSDDAATYYCQGEFSCTSADCVAFGGGTEVVVK VH: QEQLKESGGRLVTPGTPLTLTCTASGFSLSNYYMSWVRQAPGKGLEWIGGISSRAGTWYASWAKGRFTISGTSSTTMDLKITSPTTEDTATYFCARGLKIWGPGTLVTVSS
0.0099
